Data provenance is PubChem BioAssay.

assay: growth suppression of beta-catenin knockout HCT116, pilot screen, human colon tumor cells (AID 823); details: CellTiter-Glo, 60 h, at 10 µM, stronger effect = lower value;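 further: 0% = wells killed by 20 µM Hyamine and 100% = untreated DMSO cell wells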
Inconclusive results are not listed. Activity calls are given as the source filed them.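 How the source made its calls: active means cell viability at or below a set limit in both duplicate runs, the limit being the all-compound median minus 4 SD (cut at about 23% in these data, passing the limit was not always enough); inconclusive means no clear call, values can overlap the other calls; inactive means the rest.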
ASSAY ENDPOINT: viability

>>> result("O=C(CSc1ccc2nnc(-c3ccc(F)cc3)n2n1)N1CCOCC1")
"105% (inactive)"
>>> result("O=S(=O)(NCCc1csc(-c2cccnc2)n1)c1ccc(Cl)s1")
"87.6% (inactive)"
>>> result("COc1ccc(N(CC(=O)N2CCN(C)CC2)S(C)(=O)=O)cc1OC")
"90.8% (inactive)"
>>> result("Cc1csc2nc(CNS(=O)(=O)c3ccc4c(c3)CCCC4)cn12")
"101% (inactive)"
>>> result("CCOC(=O)Cc1csc(NC(NC(=O)CC)(C(F)(F)F)C(F)(F)F)n1")
"99.6% (inactive)"
>>> result("CCOC(=O)C1CCN(c2c(N3CCN(Cc4ccccc4)CC3)c(=O)c2=O)CC1")
"90.5% (inactive)"
>>> result("Cc1ccc(S(=O)(=O)N2CCN(C(=O)CN3CCCC3)C2)cc1")
"92.4% (inactive)"
>>> result("CCOC(=O)N1CCC(NC(=O)c2ccc3snnc3c2)CC1")
"98.5% (inactive)"
>>> result("COc1ccccc1C1CC(=O)NC(SCC(=O)Nc2ccccc2)=C1C#N (configuration not stated)")
"93.2% (inactive)"
>>> result("Cc1ccc(Cc2c(C)nc3nc(SCC(=O)NCc4ccco4)nn3c2C)cc1")
"13.2% (active)"
>>> result("CCCSc1nnc(Cn2c(=O)sc3ccccc32)n1C")
"94.3% (inactive)"
>>> result("CCCOc1ccc(C(=O)Nc2cc(-c3nn4c(C)nnc4s3)ccc2C)cc1")
"101% (inactive)"
>>> result("COc1ccc(-c2nc(CSCC(=O)N3CCN(C(=O)c4ccco4)CC3)c(C)o2)cc1OC")
"106% (inactive)"
>>> result("CCOC(=O)c1sc(NC(=O)C2CC2)nc1C")
"99.6% (inactive)"
>>> result("COc1cccc(-c2csc(NC(=O)C3CC3)n2)c1")
"96.6% (inactive)"
>>> result("CCC(C)(C(=O)NC1CCCCC1)N(C(=O)C1CCC(=O)N1)c1ccc(C)cc1 (configuration not stated)")
"98.7% (inactive)"
>>> result("CCn1c(SCC(=O)N2CCCC2)nc2c(c1=O)SC(C)C2 (configuration not stated)")
"101% (inactive)"
>>> result("Cc1cccc(-n2ncc3c(N(C)Cc4ccccc4)ncnc32)c1")
"109% (inactive)"
>>> result("Cc1nnc(SCc2ccc(Cl)cc2Cl)[nH]c1=O")
"104% (inactive)"
>>> result("CCc1ccc(NC(=O)CSc2nnc(Cc3cccn3C)n2-c2ccc(F)cc2)cc1")
"77.2% (inactive)"
>>> result("CC1(C)Nc2ccccc2N(CC(=O)N2CCCCC2)C1=O")
"107% (inactive)"
>>> result("COc1ccc(C2c3c(oc4ccccc4c3=O)C(=O)N2c2ccccn2)cc1OC (configuration not stated)")
"72.7% (inactive)"
>>> result("O=C1c2cccnc2C(=O)N1Cc1cccs1")
"98.5% (inactive)"
>>> result("Clc1ccc(-n2ncc3c(N4CCCCCC4)ncnc32)cc1")
"83.5% (inactive)"
>>> result("CSc1nc(C)nc2c1c(=O)n(C)c(=O)n2C")
"108% (inactive)"
>>> result("O=C(NC1CCCCC1)N1CCC(n2c(=O)[nH]c3ccccc32)CC1")
"91.1% (inactive)"
>>> result("CCSc1nnc(Cn2c(=O)sc3ccccc32)n1C")
"95.7% (inactive)"
>>> result("CCCCn1c(C(C)NC(=O)c2cccs2)nc2ccccc21 (configuration not stated)")
"89% (inactive)"
>>> result("CC(=O)c1ccc(OCC(O)CN2CCC(C)CC2)cc1 (configuration not stated)")
"101% (inactive)"
>>> result("Cc1sc(NC(=O)CCCC(=O)O)c(C#N)c1C")
"99.4% (inactive)"
>>> result("Cc1ccc2cc(CCNC(=O)C(C)(C)C)c(=O)[nH]c2c1")
"105% (inactive)"
>>> result("Cc1cccc(-n2c(CNC(=O)c3ccccc3)nnc2SCC(=O)Nc2nccs2)c1")
"112% (inactive)"
>>> result("C=C(C)Cn1c(CCNC(=O)CCC)nc2ccccc21")
"99.1% (inactive)"
>>> result("Cc1ccc(NC(=O)c2cc(-c3cccc(O)c3)on2)cc1C")
"92.1% (inactive)"
>>> result("CC(=O)Nc1ccccc1NC(=O)C(F)(F)F")
"101% (inactive)"
>>> result("COc1ccc(-c2cc3ccccc3n2CC(O)CN2CCN(CCO)CC2)cc1 (configuration not stated)")
"80.3% (inactive)"
>>> result("CCOC(=O)C1=C(C)S/C(=C\\N(C)C)C1=O")
"98.6% (inactive)"
>>> result("C=CCNC(=O)c1ccc2c(c1)nnn2C")
"103% (inactive)"
>>> result("COc1ccc(S(=O)(=O)N2CCN(c3ccc4nnc(-c5ccc(F)cc5)n4n3)CC2)cc1")
"46.4% (inactive)"
>>> result("Cc1cccc(-n2c(Cc3cc(=O)[nH]c(=O)[nH]3)nnc2SCC(=O)NCC2CCCO2)c1 (configuration not stated)")
"93.5% (inactive)"
>>> result("CNc1nc(-c2ccc(Cl)cc2)cs1")
"92.1% (inactive)"
>>> result("Cc1cc(C)c(C#N)c(Nc2ccc3c(c2)OCCO3)n1")
"97.6% (inactive)"
>>> result("CCCCCn1c(CNC(=O)COC)nc2ccccc21")
"95.4% (inactive)"
>>> result("Cc1nc(S(=O)(=O)c2ccc(Cl)cc2)c(NCc2ccccc2)o1")
"94.5% (inactive)"
>>> result("CCc1c(C)nc(SCCOc2ccc(OC)cc2)[nH]c1=O")
"108% (inactive)"
>>> result("N#Cc1nc(-c2ccccc2Cl)oc1NCC1CCCO1 (configuration not stated)")
"91.1% (inactive)"
>>> result("COCCCNc1oc(-c2ccccc2F)nc1C#N")
"105% (inactive)"

----------
The entries below come with measured viability values attached.
assay: growth suppression of PTEN-deleted HCT116, pilot screen, cell-based, HCT116 clonal line, CellTiter-Glo (AID 824); details: 60 h, at 10 µM, stronger effect = lower value;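 further: 0% = 20 µM Hyamine control and 100% = vehicle cell control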
Records with an inconclusive call do not appear.
ASSAY ENDPOINT: viability (%)

>>> result_number("CCOC(=O)c1c(CC(C)C)csc1NC=O")
80.1
>>> result_number("COc1ccc(Cn2nnc3c(=O)[nH]c(C4CCCN(C(=O)c5ccccc5)C4)nc32)cc1 (configuration not stated)")
99.9
>>> result_number("Cc1cc(C)n2nc(S(=O)(=O)NC3CCCCC3)nc2n1")
98.5
>>> result_number("Cc1cc(C(=O)N2CCN(c3ccccn3)CC2)c(C)o1")
96.3
>>> result_number("CCOC(=O)N1CCc2c(sc(NC(=O)c3ccc(Cl)s3)c2C(N)=O)C1")
40
>>> result_number("COc1ccc(C2C(C(=O)Nc3cc(C)on3)c3ccccc3C(=O)N2C)cc1OC (configuration not stated)")
99.4
>>> result_number("CNC(=O)c1ccsc1NC(=O)c1ccc(Cl)s1")
85.6
>>> result_number("COc1ccc(N(CC(=O)N2CCN(C)CC2)S(C)(=O)=O)cc1OC")
97.5
>>> result_number("O=C(CCS(=O)(=O)c1cccs1)NC1CCCCCC1")
92.7
>>> result_number("CCOC(=O)c1c(O)c2c(n(Cc3ccco3)c1=O)CCCC2")
102
>>> result_number("O=C(Nc1ccccc1Cl)N1CCN(c2ccccn2)CC1")
109
>>> result_number("OCCN1CCN(Cc2cc(Br)cc(Br)c2O)CC1")
96.3

----------
assay: Restrictive medium S. cerevisiae growth inhibition, OD615, pilot screen of yeast lifespan reduction project, restrictive growth control (AID 706); conditions: OD615, 48 h, at 10 µM, stronger effect = higher value;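 further: modified DeaD lifespan yeast strain shifted to restrictive glucose medium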
ASSAY ENDPOINT: growth inhibition (%)

>>> result_number("Cc1cc(N2CCN(S(=O)(=O)c3ccc(Cl)cc3)CC2)c2ccccc2n1")
-2.46
>>> result_number("O=C(CNC(=O)c1ccco1)OCC(=O)c1ccccc1")
3
>>> result_number("C=C1c2ccc(C)cc2NC(=O)N1c1ccccc1")
8.36
>>> result_number("O=C(CC1(O)C(=O)Nc2ccccc21)c1ccccc1 (stereo unspecified)")
-8.37
>>> result_number("Cc1ccccc1-n1nc(-c2ccc(N)cc2)cc1N")
2.1
>>> result_number("CC(C)CC(=O)Nc1c2c(nn1-c1ccc(F)cc1)CSC2")
-14.5

----------
molecular target: Receptor tyrosine-protein kinase erbB-2 (Homo sapiens); experiment: reducers of endogenous Her2 protein level, primary screen, SKBR3 breast tumor cells, AlphaScreen, ATP viability (AID 461); conditions: 18-24 h, at 10 µM, stronger effect = lower value;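 further: lower value means less Her2 protein in the cells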
Item-by-item account of Her2 level
ASSAY ENDPOINT: Her2 level (%)

>>> result_number("Nc1nnc(-c2cccc(Cl)c2Cl)c(N)n1")
124
>>> result_number("Nc1cc(CN2C(=O)c3ccccc3C2=O)cc(Cl)c1O")
91.5
>>> result_number("FC(F)(F)c1cccc(N2CCN(Cc3cccnc3)CC2)c1")
99.5
>>> result_number("C[C@@H]1C[C@H]2[C@@H]3CCC4=CC(=O)C=C[C@]4(C)[C@@]3(F)[C@@H](O)C[C@]2(C)[C@H]1C(=O)CO")
150
>>> result_number("CC(=O)N1CCc2cc(S(=O)(=O)CCC(=O)N3CCN(c4ccccn4)CC3)ccc21")
98
>>> result_number("COCCn1c(=NC(=O)CSC(C)=O)sc2cc(F)ccc21")
82.5
>>> result_number("C=CCSC1=C(C#N)C(c2ccccc2)CC(=O)N1 (stereo unspecified)")
93.5
>>> result_number("Cc1cc(C)c(OCC(=O)Nc2ccc3c(c2)OCO3)cc1C")
116
>>> result_number("O/N=C/c1ccc(OCC(O)COc2ccc(/C=N/O)cc2)cc1")
112
>>> result_number("CCOc1cc(S(=O)(=O)Nc2ccccn2)ccc1F")
110
>>> result_number("COC(=O)Nc1nnc(CCc2ccccc2)s1")
97.5
